System Name: T1, human GPVI on platelets (human, UniProt Q9HCN6 21-339)
T1 sequence (looked up): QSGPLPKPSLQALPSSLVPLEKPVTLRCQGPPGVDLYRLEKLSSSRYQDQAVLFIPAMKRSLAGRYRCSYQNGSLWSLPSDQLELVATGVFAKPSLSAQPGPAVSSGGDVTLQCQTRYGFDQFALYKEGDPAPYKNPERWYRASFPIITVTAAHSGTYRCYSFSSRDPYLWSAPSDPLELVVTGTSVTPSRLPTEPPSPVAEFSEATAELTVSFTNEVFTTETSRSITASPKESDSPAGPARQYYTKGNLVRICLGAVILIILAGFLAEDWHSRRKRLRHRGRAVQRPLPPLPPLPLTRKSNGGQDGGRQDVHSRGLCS
Experiment Notes: cell-based or functional assay
Assign IC50 for inhibition of collagen induced platelet aggregation (human PRP), Test 2 to each entry below.
One number for each entry, in µg/mL.

Consider the following illustrative entries.
{"columns": ["Binder", "Value Unit", "Numeric Value"],
 "data": [
  ["humanized anti-GPVI Fab VL2/VH2 (Fab, V domains shown, Recombinant Fab: VH fused to CH1 of human IGHG1 (Q569F4), HC ends in DKTHT; VL fused to human constant kappa (Q502W4); also called VL2 with VH2) VH: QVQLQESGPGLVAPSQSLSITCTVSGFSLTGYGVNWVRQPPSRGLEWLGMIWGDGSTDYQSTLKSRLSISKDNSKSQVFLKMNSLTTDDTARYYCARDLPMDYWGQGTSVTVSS VL: DIQMTQSPSSLSASVGGRVTITCKASQDINKYIAWYQHKPGKGPSLLIHYTSTLQPGVPSRFSGSGSGRDYSFSISNLQPEDIATYYCLQYAHLLTFGGGTKLEIKR", "µg/mL", 2.4],
  ["humanized anti-GPVI Fab VL1/VH4 (Fab, V domains shown, Recombinant Fab: VH fused to CH1 of human IGHG1 (Q569F4), HC ends in DKTHT; VL fused to human constant kappa (Q502W4); also called VL1 with VH4) VH: QVQLQESGPGLVAPSQSLSITCTVSGFSLTYYGVNWVRQPPSRGLEWLGMIWGDGSTDYQSTLKSRLSISKDNSKSQVFLKMNSLTTDDTARYYCARDLPMDYWGQGTSVTVSS VL: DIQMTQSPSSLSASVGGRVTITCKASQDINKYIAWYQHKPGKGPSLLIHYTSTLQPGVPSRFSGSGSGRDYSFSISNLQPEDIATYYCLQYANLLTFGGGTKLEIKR", "µg/mL", 1.8],
  ["humanized anti-GPVI Fab VL1/VH1 (Fab, V domains shown, Recombinant Fab: VH fused to CH1 of human IGHG1 (Q569F4), HC ends in DKTHT; VL fused to human constant kappa (Q502W4); also called VL1 with VH1) VH: QVQLQESGPGLVAPSQSLSITCTVSGFSLTGYGVNWVRQPPSRGLEWLGMIWGDGSTDYQSTLKSRLSISKDTSKSQVFLKMNSLTTDDTARYYCARDLPMDYWGQGTSVTVSS VL: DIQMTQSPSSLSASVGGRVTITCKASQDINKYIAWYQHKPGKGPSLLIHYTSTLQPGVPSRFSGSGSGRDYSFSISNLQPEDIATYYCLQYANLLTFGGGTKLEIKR", "µg/mL", 2.3],
  ["humanized anti-GPVI Fab VL1/VH5 (Fab, V domains shown, Recombinant Fab: VH fused to CH1 of human IGHG1 (Q569F4), HC ends in DKTHT; VL fused to human constant kappa (Q502W4); also called VL1 with VH5) VH: QVQLQESGPGLVAPSQSLSITCTVSGFSLTGYGVNWVRQPPSRGLEWLGMIWGDGSTDYQSTLKSRLSISKDNSKSQVFLKMNSLTTDDTARYYCARDLPMDEWGQGTSVTVSS VL: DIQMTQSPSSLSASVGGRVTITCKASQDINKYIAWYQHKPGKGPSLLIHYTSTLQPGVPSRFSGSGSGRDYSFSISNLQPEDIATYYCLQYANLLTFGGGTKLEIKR", "µg/mL", 2.3],
  ["humanized anti-GPVI Fab VL3/VH2 (Fab, V domains shown, Recombinant Fab: VH fused to CH1 of human IGHG1 (Q569F4), HC ends in DKTHT; VL fused to human constant kappa (Q502W4); also called VL3 with VH2) VH: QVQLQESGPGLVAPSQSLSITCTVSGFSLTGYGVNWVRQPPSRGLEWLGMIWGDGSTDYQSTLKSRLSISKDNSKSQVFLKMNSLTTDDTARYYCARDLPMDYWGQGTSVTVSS VL: DIQMTQSPSSLSASVGGRVTITCKASQDINKYIAWYQHKPGKGPSLLIHYTSTLQPGVPSRFSGSGSGRDYSFSISNLQPEDIATYYCLQYALLLTFGGGTKLEIKR", "µg/mL", 0.9]
]}

Moving on to another binder below.
For humanized anti-GPVI Fab VL1/VH3 (Fab, V domains shown, Recombinant Fab: VH fused to CH1 of human IGHG1 (Q569F4), HC ends in DKTHT; VL fused to human constant kappa (Q502W4); also called VL1 with VH3) VH: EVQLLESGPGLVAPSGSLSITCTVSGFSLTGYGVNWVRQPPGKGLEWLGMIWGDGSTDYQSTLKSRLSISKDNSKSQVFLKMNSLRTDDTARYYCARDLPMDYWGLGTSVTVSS VL: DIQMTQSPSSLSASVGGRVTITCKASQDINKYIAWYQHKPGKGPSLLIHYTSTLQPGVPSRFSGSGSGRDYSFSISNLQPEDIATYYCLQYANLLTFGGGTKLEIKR , what is its reported IC50 for inhibition of collagen induced platelet aggregation (human PRP), Test 2? 1.5
